System: OVCAR-5 ovarian
Test: NCI tumour cell line growth inhibition, 48 h; in the data active means GI50 below about 0.43 µM; inactive means the rest
Possible outcomes: T = active, F = inactive

compound | classification
Clc1ccc2c(NC3CCC(NC4CCCCC4)CC3)ccnc2c1 (stereo not given) | F
O=C(O)CN(CCN(CC(=O)O)CC(=O)O)CCN(CC(=O)O)CC(=O)O | F
COc1ccc2c(c1[N+](=O)[O-])CC[C@@H]1[C@@H]2CC[C@]2(C)C(=O)CC[C@@H]12 | F
Cc1cc[c]([Sb]2[O]C(CO)C(C(O)C(O)C(=O)O)[O]2)cc1 (stereo not given) | F
CN1CCN(c2cc(F)c(NC3=C(Cl)C(=O)c4ncccc4C3=O)c(F)c2)CC1 | F
CCCCCOC(=O)c1c(C)[nH]c(/C=C2\N=C(c3ccc[nH]3)C=C2OC)c1C | T
O=c1c2ccccc2c(=O)n2n1-c1cccc(c1)CSSCc1cccc-2c1 | F
[O-]c1ccccc1C=NCCN=Cc1ccccc1[O-].[O]=[U+2]=[O] | F
Cc1ccc(/C=C/C(=O)c2ccc(F)cc2)s1 | F
Cc1cc(NC(=O)NCCCOc2ccc(N3C(N)=NC(N)=NC3(C)C)cc2Cl)ccc1S(=O)(=O)F | F

###

Test system: BT-549 breast
Assay: NCI tumour cell line growth inhibition, 48 h

compound | comparator | TGI, µM
c1ccc2[nH]c(-c3ccc(Nc4nc(N5CCCC5)nc5[nH]ncc45)cc3)nc2c1 | = | 3.47
O=C(CSc1nc2ccccc2c(=O)n1-c1ccccc1)N=Nc1c(O)[nH]c2ccc(Br)cc12 | > | 59.6
COC1C(OC(=O)/C=C/C=C/C=C/C=C/C(=O)O)CCC2(CO2)C1C1(C)OC1CC=C(C)C (stereo not given) | > | 100
O=C1CC(Nc2ccccc2)c2c(Cl)sc(Cl)c21 (stereo not given) | = | 4.36
O=c1[nH]nc(-c2ccc3ccccc3c2)[nH]1 | > | 100
CCCCOC(=O)Nc1ccc(S(=O)(=O)Nc2c(Cl)cccc2Cl)cc1 | = | 60.7
O=[N+]([O-])C1=Cc2c(O)ccc(O)c2C2OC=CC12 (stereo not given) | = | 27.9
CCN(CC)c1c(-c2c(OC(C)C)c(=O)c2=O)c(=O)n2ccsc2c1OC(C)=O | > | 100
COC(=O)C12CCCN1CCC2 | > | 100
CC1=NN(c2ccccc2)C(=O)/C1=C1\SC(c2ccccc2)(c2ccccc2)c2ccccc21 | > | 100

###

Tested on: IGROV1 ovarian
Test: NCI tumour cell line growth inhibition, 48 h

compound | TGI
CN1CCN(CCCOC(=O)c2c3c(n4ccccc24)C(=O)c2ncccc2C3=O)CC1 | 4.71 µM
CN(C)c1ccc(-c2c(C#N)c(-c3ccccc3)n(NS(=O)(=O)c3ccccc3)c(=O)c2C#N)cc1 | > 100 µM
CCOC(=O)c1nc(SC)sc1NC(=O)c1ccc(OC)cc1 | > 100 µM
CC(Nc1cccc(Cl)c1)c1ccncc1 (stereo not drawn) | > 100 µM
CCCCCCc1cc2cc(C(=O)Nc3nc(C45CC6CC(CC(C6)C4)C5)cs3)c(=O)oc2cc1O | 46.9 µM
Cn1c2ccccc2n2c(=O)c(-c3ccc(Cl)cc3)nnc12 | > 100 µM
O=[N+]([O-])C1=Cc2c(O)ccc(O)c2C2OC=CC12 (stereo not drawn) | 45.4 µM
CC(C)OC(=O)Nc1c([N+](=O)[O-])cc(C(F)(F)F)cc1[N+](=O)[O-] | > 100 µM
O=c1c2ccccc2c(=O)n2n1-c1cccc(c1)CSSCc1cccc-2c1 | > 100 µM
CCCCOC(=O)Nc1ccc(S(=O)(=O)Nc2c(Cl)cccc2Cl)cc1 | 79.5 µM
Cc1cc[c]([Sb]2[O]C(CO)C(C(O)C(O)C(=O)O)[O]2)cc1 (stereo not drawn) | > 100 µM
Nc1nc(N)c2cc(-c3cc4ccccc4[nH]3)ccc2n1 | 33.4 µM
CN1CCN(c2ccc3nc(-c4[nH]ncc4Nc4ncnc5[nH]ccc45)[nH]c3c2)CC1 | 1.41 µM
CCOC(=O)c1sc2nc(=S)[nH]c(NC(N)=S)c2c1C | > 100 µM
CC1COS(=O)N1c1ccccc1 (stereo not drawn) | > 100 µM
COC1CCC(O)C(CO)O1 (stereo not drawn) | 61.2 µM
CCCSc1ccc2[nH]c(N3C(=O)/C(=C/c4ccc(O)c(OC)c4)N=C3c3ccccc3)cc2c1 | > 100 µM
O=C(Nc1ccc(Cl)cc1)c1cc(S(=O)(=O)Nc2nc3ncccc3[nH]2)c(SSc2cc(Cl)c(C(=O)Nc3ccc(Cl)cc3)cc2S(=O)(=O)Nc2nc3ncccc3[nH]2)cc1Cl | > 100 µM
COc1cccc(C2CC(C)(O)Oc3cc4c(cc32)OCO4)c1 (stereo not drawn) | > 100 µM
CCCCCOC(=O)c1c(C)[nH]c(/C=C2\N=C(c3ccc[nH]3)C=C2OC)c1C | 1.52 µM
C=CC(=O)N1CCN([C@@H](CC2CC2)c2ccc([C@H](C)Nc3ncc4c(n3)N(CC)C(=O)OC4)cc2)CC1 | 17.5 µM
CCOC(=O)Cn1nnc2ccc(Nc3nc4ccccc4nc3C(=O)OCC)cc21 | > 100 µM
CCOC(=O)N1CCC2(CC1)C[C@](Sc1ccccc1)(C(C)=O)[C@H](C)O2 | > 100 µM
Cc1cc(NC(=O)NCCCOc2ccc(N3C(N)=NC(N)=NC3(C)C)cc2Cl)ccc1S(=O)(=O)F | > 68.8 µM
CCN(Cc1ccccc1)c1ccc(/C=C2\COc3ccccc3C2=O)cc1 | > 1000 µM
COc1ccc(-c2nc(-c3nc4cc(Cl)c(Cl)cc4[nH]3)c3ccccn23)cc1 | > 100 µM
CCCN1CCC(Oc2cc(Nc3nc(Nc4cccc(F)c4C(N)=O)c4cc[nH]c4n3)c(OC)cc2Cl)CC1 | 9.22 µM
O=C(c1ccccc1)[C@H]1Nc2ccc(Cl)cc2[C@H]2c3ccccc3O[C@H]21 | 38.2 µM
COc1cc2ncnc(Nc3cccc(Br)c3)c2cc1OC | 29.6 µM
CCOC(=O)c1ccc(-c2onc(C)c2Br)[nH]1 | > 100 µM
N#Cc1nc2cc(Cl)c(Cl)cc2nc1-c1ccc(Cl)cc1 | > 100 µM
CCN(CC)P(=O)(c1ccc2c(c1)OCCOCCOCCOCCO2)N(CC)CC | > 100 µM
CCOC(=O)CCCN | > 100 µM
COc1ccc(-c2nn3ncccc3c2-c2ccnc(Nc3ccc(F)c(F)c3)n2)cc1 | 24.5 µM
O=C(O)c1c2c(c(O)c3c1CN(C1CCCCC1)CO3)OCN(C1CCCCC1)C2 | > 100 µM
CCCCOc1ccc(/C=C/C2=[N+](CCO)CCO2)cc1 | > 100 µM
c1ccc(CCCN2C3CCC2CN(CCOC(c2ccccc2)c2ccccc2)C3)cc1 | 27 µM
COc1ccc(C(O)C(c2ccc(OCc3ccccc3)cc2)c2ccc(OCc3ccccc3)cc2)cc1 (stereo not drawn) | > 100 µM
CN(c1ccccc1)c1nc(=[N+](C)C)ss1 | > 100 µM
CC1OC1C(=O)P(=O)(O)O (stereo not drawn) | > 100 µM
OC1C2CN3CCN(C2)CC1(c1ccccc1)C3 (stereo not drawn) | > 100 µM
C#CCOC(=O)C=[N+]=[N-] | > 10 µM
COc1cc(/C=C2\CC3C4CC=C5C[C@@H](O)CC[C@]5(C)C4CC[C@]3(C)\C2=N\O)cc(OC)c1OC (stereo partly drawn) | > 100 µM
